- targetEntity: CYP 2B6 (Homo sapiens, UniProt P20813)
- Sequence (P20813 1-491): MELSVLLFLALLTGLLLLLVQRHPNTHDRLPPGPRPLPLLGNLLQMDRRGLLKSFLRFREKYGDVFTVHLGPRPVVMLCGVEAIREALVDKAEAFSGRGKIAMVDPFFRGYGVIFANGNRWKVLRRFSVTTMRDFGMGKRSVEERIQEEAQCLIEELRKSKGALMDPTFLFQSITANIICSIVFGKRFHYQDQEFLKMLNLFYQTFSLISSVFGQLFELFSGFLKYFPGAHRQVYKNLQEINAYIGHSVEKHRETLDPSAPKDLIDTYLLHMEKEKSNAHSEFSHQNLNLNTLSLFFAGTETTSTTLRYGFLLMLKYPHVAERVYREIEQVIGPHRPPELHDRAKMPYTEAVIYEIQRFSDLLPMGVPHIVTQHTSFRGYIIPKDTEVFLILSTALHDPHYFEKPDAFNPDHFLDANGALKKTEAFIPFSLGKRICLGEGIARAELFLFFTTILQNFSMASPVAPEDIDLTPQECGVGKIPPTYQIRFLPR
- measurementProtocol: CYP inhibition in vitro
- Type: in vitro ADME
assayEndpoint: IC50

compoundStructureString: Cc1cc(F)c(C(=O)Nc2cccc(-c3nncn3[C@H](C)C(F)(F)F)n2)cc1NC(=O)C1CC1
IC50: > 10 µM

Note to self: IC50 recorded for "N#Cc1nn(-c2cc(Br)c(Oc3n[nH]c(=O)c4ccccc34)c(Br)c2)c(=O)[nH]c1=O" was > 10 µM
